Values from PubChem BioAssay (NCI)

# Test system: LOX IMVI melanoma
# ASSAY DETAILS: NCI tumour cell line growth inhibition, 48 h
A collection of compounds and their measured TGI
EXPERIMENTAL READOUT: TGI

1) Cc1cc(C)nc(NS(=O)(=O)c2ccc(Nc3c4ccccc4nc4c(C(=O)NCCCN(CCO)CCO)cccc34)cc2)n1
46.1 µM
2) CC(N)C(C)Cc1ccccc1 (stereo unspecified)
> 100 µM
3) Cn1c2c(c3ccccc31)C1CCCCC1C1C(=O)NC(=O)C21 (stereo unspecified)
> 100 µM
4) CC(C)(C)NN=C1C(C)(C)C(=NNC(C)(C)C)C1(C)C
> 100 µM
5) O=C1C(CN2CCCCC2)CCCC1CN1CCCCC1 (stereo unspecified)
> 57.2 µM
6) OC12COc3ccccc3C1Oc1ccccc1C2 (stereo unspecified)
> 100 µM

====

A collection of molecules and their measured GI50
# Test system: SF-295 CNS
# ASSAY DETAILS: NCI tumour cell line growth inhibition, 48 h
EXPERIMENTAL READOUT: GI50

1) N#Cc1c(-c2ccc(Cl)cc2)n(O)c2ccccc12
2.33 µM
2) CS(=O)CCCCCN=C=S (configuration not stated)
17.1 µM
3) Cc1cccc(Oc2nccc(-c3c(-c4ccc(F)cc4)ncn3C3CCNCC3)n2)c1C
5.56 µM
4) CCCCCCCC/C=C/CCCCCCCC1=NCC[N+]1(CCO)CCO
1.75 µM
5) CC(=O)Nc1ccc(Sc2ccc([N+](=O)[O-])o2)cc1
10.4 µM
6) O=C(OCc1ccccc1)N1CCN(/[N+]([O-])=N/Oc2ccc([N+](=O)[O-])cc2[N+](=O)[O-])CC1
21.5 µM
7) COc1ccccc1-n1c(-c2cc(O)ccc2C)cn2c3c(=O)[nH]c(=O)n(C)c3nc12
5.34 µM

====

A collection of compounds and their measured TGI
# Tested on: OVCAR-3 ovarian
# ASSAY DETAILS: NCI tumour cell line growth inhibition, 48 h
EXPERIMENTAL READOUT: TGI

1. CCCc1c(OC)c(=O)c2c(OC)cc(OC)c3c4c(OC)cc(OC)c5c(=O)c(OC)c(CCC)c(c1c23)c54
31.8 µM
2. COc1ccc(C2C3C(=O)C=CC(=O)C3[C@@H]2C)cc1OC (stereo partly specified)
> 100 µM
3. COc1ccc(N=C(C)c2ccncc2)cc1
> 100 µM
4. CC1(C23CC4CC(CC(C4)C2)C3)n2c(=O)n(-c3ccccc3)c(=O)n2C1(C)C12CC3CC(CC(C3)C1)C2 (stereo unspecified)
> 100 µM
5. Cc1cccc2c1Oc1ccccc1C2NC(=O)c1ccc([N+](=O)[O-])cc1 (stereo unspecified)
> 100 µM
6. Cc1cc2c(=O)n(-c3ccc(F)cc3)c(C)nc2c(C(=O)O)c1C
> 100 µM
7. CC/C=C1\N=C(c2ccc(Cl)cc2)OC1=O
> 100 µM
8. Cc1[nH]c(=O)nc(N/N=C/c2ccc(Cl)cc2)c1C(=O)NC(C)(CO)CO
> 100 µM
9. COc1cc(/C=C/c2cc(/C=C/c3ccc(O)c(OC)c3)n(-c3c(C)cccc3C)c(=O)n2)ccc1O
6.6 µM
10. N#Cc1c(-c2ccc([N+](=O)[O-])cc2)cc(-c2ccc(Nc3ccnc4cc(C(F)(F)F)ccc34)cc2)nc1N
29.3 µM
11. N/N=C1\C(=O)N(C2CCCCC2)C(=O)C1C(=O)NC1CCCCC1 (stereo unspecified)
51 µM

====

# Tested on: CAKI-1 renal
# ASSAY DETAILS: NCI tumour cell line growth inhibition, 48 h
EXPERIMENTAL READOUT: TGI

1. CCCCC(C)C1CCC2(C)C=CC(=O)C(C)=C2C1O (stereo not drawn)
> 100 µM
2. COc1cccc(NC(=S)Nn2c(C)nc3ccccc3c2=O)c1
> 100 µM
3. C[C@]12CC[C@@H]3c4cc(OCC(F)(F)F)c(O)cc4C(=O)C[C@H]3[C@@H]1CC[C@@H]2O
> 100 µM

====

# System: A549 NSCLC
# ASSAY DETAILS: NCI tumour cell line growth inhibition, 48 h; in the data active = GI50 below about 0.43 µM; inactive = the rest
Labels: 1.0 for active, 0.0 for inactive

1. CC(=O)c1ccc(NC(=O)CSc2nnc(-c3cc(-c4ccc(C)cc4)nc4ccccc34)o2)cc1
0.0
2. CCOc1ccc([C@@H]2[C@@H](Oc3ccccc3)C(=O)N2c2cc(OC)c(OC)c(OC)c2)cc1
1.0
3. CN(C)c1ccc(C(=C2C=CC(=[N+](C)C)C=C2)c2ccc(N(C)C)cc2)cc1 (tested in a mixture with another compound)
1.0
4. CCN(CC)CCCNc1cccc2c(SCc3ccccc3)ccnc12
0.0

====

A collection of compounds and their measured TGI
# Test system: SK-MEL-2 melanoma
# ASSAY DETAILS: NCI tumour cell line growth inhibition, 48 h
Where a SMILES comes first, the peptide text is derived from it. [ ]: non-standard residue; d: D form. The star is where a group is joined. AllylGly = C=CC[CH](N)C(=O)O; Boc = CC(C)(C)OC(=O)*; OtBu = CC(C)(C)O*
EXPERIMENTAL READOUT: TGI

1. COc1ccc2oc3c4c2c1CCC4CCC3=O (configuration not stated)
> 100 µM
2. CC1=CC(=O)CCC2(C)C1CC[C@@H]2OC=O (some centres not stated)
> 100 µM
3. C=CCC(NC(=O)C(CC(=O)OC(C)(C)C)NC(=O)OC(C)(C)C)C(=O)OC (configuration not stated) (Boc-Asp(OtBu)-[AllylGly]-OMe; configuration not given here)
> 100 µM
4. COc1cc(NCCCCN=C(N)NC(N)=NC(C)C)c2ncccc2c1
14.9 µM
5. COc1cc(C2C(Cl)C(=O)N2NC(=O)c2ccccc2O)ccc1O (configuration not stated)
> 100 µM
6. Cc1cc(C)nc(NS(=O)(=O)c2ccc(Nc3c4ccccc4nc4c(C(=O)NCCCN(CCO)CCO)cccc34)cc2)n1
34.8 µM
7. CC(=O)c1c(C(F)(F)F)n([O-])c2ccc(Cl)cc2[n+]1=O
12.5 µM
8. COC(=O)C1=C(C(=O)OC)C2(OC(C)=O)c3ccccc3-c3ccccc3C12 (configuration not stated)
29.2 µM
9. CCCCc1c2c(nc3c1CCCC3O)/C(=C/c1ccccc1)CCC2 (configuration not stated)
51.7 µM
10. CC(=O)OCC1OC(n2c3c(c(-c4ccco4)c(C#N)c2=S)CCC3)C(OC(C)=O)C(OC(C)=O)C1OC(C)=O (configuration not stated)
> 100 µM
11. O=C(O)C1C(C(=O)Nc2ccc3c(c2)Cc2ccccc2-3)C2(Cl)C(Cl)=C(Cl)C1(Cl)C2(Cl)Cl (configuration not stated)
36.2 µM
12. CCCCCC(O)C1C(=O)OC(C)C(O)/C=C/C=C/C=C/C=C\C=C(\C)C(O)CC(O)CC(O)CC(O)CC(O)CC(O)CC1O (configuration not stated)
> 100 µM
13. CCOC(=O)CCC(NC(=O)c1ccc(Oc2nc3ccc(C(F)(F)F)cc3nc2-c2ccccc2)cc1)C(=O)OCC (configuration not stated)
> 65.8 µM
14. Cc1cc2cc3cc(C)c(N(C)C)cc3nc2cc1N(C)C
75.7 µM
15. COc1ccc(C(O)/C(=N\NC(N)=S)c2nc3ccc([N+](=O)[O-])cc3[nH]c2=O)cc1OC (configuration not stated)
> 100 µM
16. COc1cc(/C=C/c2cc(/C=C/c3ccc(O)c(OC)c3)n(-c3c(C)cccc3C)c(=O)n2)ccc1O
1.73 µM
17. C[C@]12CC[C@@H]3c4cc(OCC(F)(F)F)c(O)cc4C(=O)C[C@H]3[C@@H]1CC[C@@H]2O
> 26.1 µM
18. COc1ccccc1-n1c(-c2cc(O)ccc2C)cn2c3c(=O)[nH]c(=O)n(C)c3nc12
> 100 µM
19. O=c1[nH]c(Nc2cccc(C(F)(F)F)c2)nc2nc[nH]c12
> 100 µM
20. CC(C)NC(=O)CN1CCN(C2=CC(=O)c3c(O)ccc(O)c3C2=O)CC1
34.3 µM
21. Brc1ccc(-c2nnc(-c3nn(-c4ccccc4)c4nc5ccccc5nc34)o2)cc1
> 100 µM
22. O=S(O)CCCCCSSCCCCSSCCCCCS(=O)O
> 100 µM
23. CC(=O)C1CC=C(C)CC1 (configuration not stated)
> 100 µM
24. O=C1OCC(c2cccs2)=C1Cl
> 100 µM
25. CC(=O)N1CC(Nc2ccc(OC(F)(F)F)cc2)=CC1=O
95.9 µM
26. COc1cc2c(cc1OCCOS(C)(=O)=O)N=C[C@@H]1CCCN1C2=O
> 100 µM
27. CC(=O)c1ccc(NC(=O)CSc2nnc(-c3cc(-c4ccc(C)cc4)nc4ccccc34)o2)cc1
31.2 µM
28. N=C(N)c1ccc(-c2ccc(-c3ccc(Cl)cc3Cl)s2)cc1F
5.2 µM
29. Cc1cc2c(=O)n(-c3ccc(F)cc3)c(C)nc2c(C(=O)O)c1C
> 100 µM
30. COC1=CC(=O)[C@H]2[C@H](C)C(c3ccccc3)[C@@]2(C)C1=O (some centres not stated)
> 100 µM
31. NS(=O)(=O)c1cc2c(cc1Cl)NC(Cc1ccccc1)NS2(=O)=O (configuration not stated)
> 100 µM
32. CCNCC(=O)O[C@]1(CC)C(=O)OCc2c1cc1n(c2=O)Cc2cc3ccccc3nc2-1
7.92 µM
33. CCSCC(N)C(=O)O (configuration not stated)
> 100 µM
34. CC(C)C1OC(=O)C=C1Sc1ccccc1 (configuration not stated)
> 100 µM
35. CCc1n[nH]c(=O)n1/N=C/c1ccccc1Cl
> 100 µM
36. CCCCCNc1nonc1N
> 100 µM
37. NC(=NCCCOc1ccc(Cl)cc1)Nc1ccc(Cl)cc1
4.72 µM
38. Cc1cccc2c1Oc1ccccc1C2NC(=O)c1ccc([N+](=O)[O-])cc1 (configuration not stated)
> 100 µM
39. Cc1[nH]c(=O)nc(N/N=C/c2ccc(Cl)cc2)c1C(=O)NC(C)(CO)CO
> 100 µM
40. O=C(/C=C/c1ccc(Cl)cc1)Oc1ccc(/C=C2\CCCCC2=O)cc1
> 100 µM
41. CN(C)c1ccc(/C=C(/NC(=O)c2ccccc2)c2nc3ccc(Cl)cc3[nH]2)cc1
99.4 µM
42. Cc1ccc(-c2nc(SCC(=O)O)n[nH]2)cc1
> 100 µM
